assay: NCI Yeast Anticancer Drug Screen. Data for the mlh1 rad18 strain (AID 175); conditions: S. cerevisiae mlh1 rad18 strain growth inhibition; at 50.0 µM (retest, dose inferred, filed as 5.0); stronger effect = higher value
The panel holds about 79,000 compounds, 15% with a hit somewhere; the sample as a whole holds those more often. Activity calls are given as the source filed them. No stated cut-off is given here; in the data, active means growth inhibition above about 70%; inactive means the rest.
Reported growth inhibition by item:

The cases that follow already have their growth inhibition on record.
C/C(=N\OCC(O)CNCCSCc1ccccc1)c1ccccc1Cl (stereo unspecified); 41% (inactive)
O=[N+]([O-])/C=C/c1cc2ccc3ccccc3c2[nH]1; 94% (active)
CC(=O)O/N=C1C=C/C(=C(/C#N)c2ccccc2)C=C/1C; 98% (active)
Cc1ccc(S(=O)(=O)N/N=C/C(Br)=C(/Br)C(=O)O)cc1; 69% (inactive)
CCN(CC)CCNc1ccc2nc(C)n3c4ccc(O)cc4c(=O)c1c23; 6% (inactive)

Lab note: next compound to report on.
Inquiry: Requested read-out: growth inhibition. Entry: "CCN(CC)CCNc1ccc2nc(C)n3c4ccc(OC)cc4c(=O)c1c23"
Reply text: 56% (inactive)

###

experiment: NCI Yeast Anticancer Drug Screen. Data for the mlh1 rad18 strain (AID 175); conditions: S. cerevisiae mlh1 rad18 strain growth inhibition; at 50.0 µM (retest, dose inferred, filed as 5.0); stronger effect = higher value
This is part of a sample that, as a whole, favours compounds with a hit. Of some 79,000 tested, about 15% had one in any assay. Calls of active or inactive are those of the source. No stated cut-off is given here; in the data, active means growth inhibition above about 70%; inactive means the rest.
Reported growth inhibition by item:

The cases that follow already have their growth inhibition on record.
Cc1ccc(Nc2n[nH]c(=S)s2)c(C)c1; 19% (inactive)
O=[N+]([O-])c1ccc(/C=C\c2ccc3c(c2)OCO3)c([N+](=O)[O-])c1; 96% (active)
O=S(=O)(c1cccc(C(F)(F)F)c1)N1c2ccccc2-n2cccc2C1c1cccnc1 (stereo unspecified); 96% (active)
OC1(c2ccccc2)C2CC=CC2C1(c1ccccc1)c1ccccc1 (stereo unspecified); 76% (active)
CCN(CC)CC(=O)c1ccc2cc(Cl)c3ccccc3c2c1; 98% (active)

Inquiry: Requested read-out: growth inhibition. Entry: "COc1cc([C@@H]2c3cc4c(cc3[C@@H](NC(=O)NO)[C@H]3COC(=O)[C@H]23)OCO4)cc(OC)c1O"
Reply text: -14% (inactive)

Inquiry: Requested read-out: growth inhibition. Entry: "O=C(/N=N/C(=O)Oc1ccccc1)Oc1ccccc1"
Reply text: 98% (active)

Inquiry: Requested read-out: growth inhibition. Entry: "S=C(NCc1ccccn1)N/N=C/c1ccccn1"
Reply text: 99% (active)

Inquiry: Requested read-out: growth inhibition. Entry: "O=C1C(=O)c2cccc([N+](=O)[O-])c2-c2ccccc21"
Reply text: 98% (active)

Inquiry: Requested read-out: growth inhibition. Entry: "COc1ccc2nc3cccc([N+](=O)[O-])c3c(NCCNCCO)c2c1"
Reply text: 98% (active)

Inquiry: Requested read-out: growth inhibition. Entry: "COc1ccc2nc3cccc([N+](=O)[O-])c3c(NCCCCCC(=O)O)c2c1"
Reply text: 98% (active)

###

experiment: NCI Yeast Anticancer Drug Screen. Data for the bub3 strain (AID 167); conditions: S. cerevisiae bub3 mutant strain, at 100.0 µM
This is part of a sample that, as a whole, favours compounds with a hit. Of some 79,000 tested, about 15% had one in any assay. The source made the active and inactive calls. Cut-off read from the data, not from the text of the source: active = growth inhibition above about 70%; inactive = the rest.
Parameter call: string, one of y (active), n (inactive)

Below, 4 compounds whose answers are already recorded.
O=C(NCCCCN1CC2CCCC2C1)C(C1CCCCC1)C1CCCCC1 (configuration not stated); y
CCCC/C=C1\CCC(CN2CCCC2)C1=O (configuration not stated); y
COc1ccc(/C=C2\SC(=S)N(/C=C3\C(=O)N(c4ccccc4)N=C3C)C2=O)cc1OC; n
COc1cccc(/C=C2\S/C(=N/Nc3nc(-c4ccc([N+](=O)[O-])cc4)cs3)NC2=O)c1O; y

Inquiry: Recorded call for "O=[N+]([O-])c1cc[n+]([O-])c(Cl)c1" ?
Reply text: y

Inquiry: Recorded call for CCC(OC(C)=O)C1CC(C(C)C)CCC1C (configuration not stated) ?
Reply text: y

Inquiry: Recorded call for "Cc1ccc(Nc2n[nH]c(=S)s2)c(C)c1" ?
Reply text: y

Inquiry: Recorded call for "Cc1cc2nc3ccccc3n2c2ccccc12" ?
Reply text: n

Inquiry: Recorded call for "CCOC(=O)Nc1ccc(C)c(NC(=O)OCC)c1" ?
Reply text: n

FYI, the data here is from PubChem BioAssay (NCI).
